Assay: Half life in Swiss Webster mouse at 131 mg/kg, po by HPLC-MS/MS analysis
Type: ADME, organism-based
Design: dose 131 mg/kg, route oral
Details: in vivo
ASSAY_READOUT: half-life

In [3]: df
Out[3]:
                                chem_smiles  reported_value
0  CCOc1cc(NC(=N)c2ccccn2)ccc1-c1ccc(-c2ccc(NC(=N)c3ccccn3)cc2OCC)o1            32 h

====

Assay: Clearance in Swiss Webster mouse at 5 mg/kg, iv by HPLC-MS/MS analysis
Format: ADME, organism-based
Set-up: dose 5 mg/kg, route intravenous
Conditions: in vivo
ASSAY_READOUT: clearance

In [3]: df
Out[3]:
                                chem_smiles  assay_readout  reported_value
0  CC(C)Oc1cc(NC(=N)c2ccccn2)ccc1-c1ccc(-c2ccc(NC(=N)c3ccccn3)cc2OC(C)C)o1      clearance  13.1 mL/min/kg
